METHOD DESCRIPTION: HILIC, Waters Atlantis Premier BEH Z-HILIC, 100 × 2.1 mm, 1.7 µm, 40 °C, 0.17 mL/min, estimated dead time 1.3 min; A: water + 20 mM ammonium carbonate + 5 µM medronic acid; B: 10% water + 90% acetonitrile + 2 mM ammonium carbonate + 0.5 µM medronic acid; gradient (min/%B) 0/100 18/60 18.1/20 21.5/20 22/100 23.5/100 25.5/100
EXPERIMENTAL PARAMETERS: stereoisomer not certain
Examples of compounds with documented LC retention time follow.
REPORTED PROPERTY: LC retention time (min)

>>> endpoint_result("O=C(O)CC(C(=O)O)C(O)C(=O)O (stereo unspecified)")
14.5
>>> endpoint_result("O=C(O)CCC(=O)O")
9.16
>>> endpoint_result("O=P(O)(O)OCC(O)CO (stereo unspecified) [Glycerol-3-phosphate]")
9.75
>>> endpoint_result("C[N+](C)(C)CC(O)CC(=O)[O-] (stereo unspecified)")
9.73
>>> endpoint_result("Nc1ncnc2c1ncn2C1OC(COP(=O)(O)OP(=O)(O)O)C(O)C1O (stereo unspecified)")
11
>>> endpoint_result("O=C(O)C(CO)OP(=O)(O)O (stereo unspecified)")
12.2
>>> endpoint_result("O=C(O)CC(O)(CC(=O)O)C(=O)O")
13.9
>>> endpoint_result("NC(CCC(=O)O)C(=O)O (stereo unspecified)")
9.15
>>> endpoint_result("O=P(O)(O)OCC1OC(O)C(O)C(O)C1O (stereo unspecified) [Glucose-6-phosphate]")
12.4
>>> endpoint_result("O=C(O)CCC(O)C(=O)O (stereo unspecified) [2-hydroxy glutaric acid]")
9.81
>>> endpoint_result("O=C(CO)COP(=O)(O)O [Triose phosphate]")
9.76

----------
Examples of compounds with documented LC retention time follow.
METHOD DESCRIPTION: HILIC, Waters Atlantis Premier BEH Z-HILIC, 100 × 2.1 mm, 1.7 µm, 40 °C, 0.17 mL/min, estimated dead time 1.3 min; A: water + 20 mM ammonium carbonate + 5 µM medronic acid; B: 10% water + 90% acetonitrile + 2 mM ammonium carbonate + 0.5 µM medronic acid; gradient (min/%B) 0/100 18/60 18.1/20 21.5/20 22/100 23.5/100 25.5/100
EXPERIMENTAL PARAMETERS: stereoisomer not certain
REPORTED PROPERTY: LC retention time

>>> endpoint_result("CC(O)C(=O)O (stereo not given)")
"2.96 min"
>>> endpoint_result("O=C(CO)C(O)C(O)C(O)COP(=O)(O)O (stereo not given) [Fructose 6-phosphate]")
"10.9 min"
>>> endpoint_result("CC(C)CC(N)C(=O)O (stereo not given)")
"5.72 min"
>>> endpoint_result("NC(=O)c1ccc[n+](C2OC(COP(=O)(O)OP(=O)(O)OCC3OC(n4cnc5c(N)ncnc54)C(O)C3O)C(O)C2O)c1 (stereo not given)")
"10.7 min"
>>> endpoint_result("O=P(O)(O)OCC1OC(O)(COP(=O)(O)O)C(O)C1O (stereo not given) [Fructose-1,6-bisphosphate]")
"15.2 min"

----------
METHOD DESCRIPTION: HILIC, Waters Atlantis Premier BEH Z-HILIC, 100 × 2.1 mm, 1.7 µm, 40 °C, 0.17 mL/min, estimated dead time 1.3 min; A: water + 20 mM ammonium carbonate + 5 µM medronic acid; B: 10% water + 90% acetonitrile + 2 mM ammonium carbonate + 0.5 µM medronic acid; gradient (min/%B) 0/100 18/60 18.1/20 21.5/20 22/100 23.5/100 25.5/100
EXPERIMENTAL PARAMETERS: stereoisomer not certain
Examples of molecules with documented LC retention time follow.
REPORTED PROPERTY: LC retention time

>>> endpoint_result("NC(=O)CCC(N)C(=O)O (centres undefined)")
"10.4 min"
>>> endpoint_result("Nc1ncnc2c1ncn2C1OC(COP(=O)(O)OP(=O)(O)OP(=O)(O)O)C(O)C1O (centres undefined)")
"13 min"
>>> endpoint_result("Nc1ncnc2c1ncn2C1OC(CO)C(O)C1O (centres undefined)")
"4.21 min"
>>> endpoint_result("Cc1cc2nc3c(=O)[nH]c(=O)nc-3n(CC(O)C(O)C(O)COP(=O)(O)OP(=O)(O)OCC3OC(n4cnc5c(N)ncnc54)C(O)C3O)c2cc1C (centres undefined)")
"7.12 min"

Cited source: the RepoRT retention time repository
